- Measurement target: T1, human LAG3 expressed on HEK293 cells (human, UniProt P18627 23-525)
- T1 construct: also called hLAG3; HEK293/hLAG3
- T1 sequence: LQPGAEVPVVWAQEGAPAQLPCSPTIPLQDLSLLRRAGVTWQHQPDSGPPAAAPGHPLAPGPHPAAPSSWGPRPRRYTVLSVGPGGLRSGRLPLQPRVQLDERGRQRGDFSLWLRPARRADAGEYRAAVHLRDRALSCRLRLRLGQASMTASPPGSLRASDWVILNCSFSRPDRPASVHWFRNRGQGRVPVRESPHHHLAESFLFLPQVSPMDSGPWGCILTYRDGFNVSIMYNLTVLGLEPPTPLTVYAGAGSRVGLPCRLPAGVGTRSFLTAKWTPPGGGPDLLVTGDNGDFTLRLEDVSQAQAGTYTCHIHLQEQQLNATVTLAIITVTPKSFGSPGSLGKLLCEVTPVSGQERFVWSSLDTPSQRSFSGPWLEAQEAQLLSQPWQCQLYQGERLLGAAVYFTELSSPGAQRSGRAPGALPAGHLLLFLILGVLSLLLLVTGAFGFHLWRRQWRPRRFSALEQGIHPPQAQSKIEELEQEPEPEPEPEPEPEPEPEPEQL
- Experiment description: electrochemiluminescence cell binding, HEK293-hLAG3
pEC50: −log10 of the molar value.
Test readout: pEC50

Binder | Numeric readout
H4H17823P (antibody, human IgG4, V domains shown, H4H = human IgG4 Fc with S108P hinge mutation) VH: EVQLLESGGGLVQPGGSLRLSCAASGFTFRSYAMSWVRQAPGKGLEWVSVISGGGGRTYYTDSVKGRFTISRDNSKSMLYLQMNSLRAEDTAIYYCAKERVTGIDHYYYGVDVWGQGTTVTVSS VL: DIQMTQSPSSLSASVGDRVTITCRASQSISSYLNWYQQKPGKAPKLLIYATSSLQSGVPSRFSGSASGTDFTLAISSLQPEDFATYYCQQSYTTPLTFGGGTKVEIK | 8.82
H4H14813N (antibody, human IgG4, V domains shown, H4H = human IgG4 Fc with S108P hinge mutation) VH: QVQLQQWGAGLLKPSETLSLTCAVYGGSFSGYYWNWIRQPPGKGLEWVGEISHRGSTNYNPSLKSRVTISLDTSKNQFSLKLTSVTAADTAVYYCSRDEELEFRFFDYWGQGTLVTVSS VL: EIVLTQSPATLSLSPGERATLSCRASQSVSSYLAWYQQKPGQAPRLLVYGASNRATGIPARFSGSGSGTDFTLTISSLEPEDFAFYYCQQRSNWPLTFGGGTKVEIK | 7.70
H4H15483P (antibody, human IgG4, V domains shown, H4H = human IgG4 Fc with S108P hinge mutation) VH: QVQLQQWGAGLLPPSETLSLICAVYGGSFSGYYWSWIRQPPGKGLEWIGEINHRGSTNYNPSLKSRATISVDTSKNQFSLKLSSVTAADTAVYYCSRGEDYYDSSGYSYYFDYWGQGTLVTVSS VL: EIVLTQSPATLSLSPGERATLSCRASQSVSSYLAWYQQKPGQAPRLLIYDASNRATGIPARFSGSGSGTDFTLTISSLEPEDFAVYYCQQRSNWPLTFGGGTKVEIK | 7.76
H4H17819P (antibody, human IgG4, V domains shown, H4H = human IgG4 Fc with S108P hinge mutation) VH: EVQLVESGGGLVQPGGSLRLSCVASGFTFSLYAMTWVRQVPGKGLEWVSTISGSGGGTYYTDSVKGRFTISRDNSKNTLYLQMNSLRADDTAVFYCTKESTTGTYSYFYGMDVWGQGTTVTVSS VL: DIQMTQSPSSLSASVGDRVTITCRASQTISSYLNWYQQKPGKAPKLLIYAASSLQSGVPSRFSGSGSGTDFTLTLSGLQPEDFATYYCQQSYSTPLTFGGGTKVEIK | 9.16
